test.system: T1, human GM-CSFRα-6His (human, UniProt P15509 23-320)
T1 construct: pTT5-GMRa-6his (ECD), made in 293F cells; also called GMRah; GMRa-6his(ECD)
T1 sequence: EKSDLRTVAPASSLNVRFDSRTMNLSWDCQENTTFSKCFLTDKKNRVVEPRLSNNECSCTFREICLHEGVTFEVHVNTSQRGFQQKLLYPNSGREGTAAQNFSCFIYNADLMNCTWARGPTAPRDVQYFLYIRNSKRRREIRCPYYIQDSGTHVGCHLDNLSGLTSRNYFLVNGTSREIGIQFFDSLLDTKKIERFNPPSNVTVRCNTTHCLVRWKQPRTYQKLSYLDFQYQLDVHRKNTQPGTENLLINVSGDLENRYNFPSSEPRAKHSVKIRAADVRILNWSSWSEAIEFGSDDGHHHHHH
assay.notes: ELISA on human GM-CSFRα, antibodies as human IgG1; x axis 'Log Ab concentration', no unit
property: binding result

E88-IgG1 (antibody, V domains shown, human IgG1, human kappa) VH: QMQLVQSGAEVKKPGASVKVSCKVSGHTLTELSMHWVRQAPGKGLEWMGGFDPEDGETIYAQKFQGRVTMTGDTSTDTAYLELSSLRSEDTALYYCATGRYCHKDGCYGFDYWGQGTLVTVSS VL: EIVMTQSPATLSLSPGERATLSCRASQSVSSYLAWYQQKPGQAPRLLIYGASSRATGIPDRFSGSGSGTDFTLTISRLEPEDFAVYYCQQYDSSPHTFGQGTKLEIK	binds
E90-IgG1 (antibody, V domains shown, human IgG1, human kappa) VH: QMQLVQSGAEVKKPGASVKVSCKVSGYTLTELSIHWVRQAPGKGLEWMGGFDPEDGETIYAQKSQGRVTMTGDTSTDTAYLELSSLRSEDTALYYCATGRYTGLYASYGFDYWGQGTLVTVSS VL: EIVMTQSPATLSLSPGERATLSCRASQSVSSYLAWYQQKPGQAPRLLIYGASSRATGIPDRFSGSGSGTDFTLTISRLEPEDFAVYYCQQYDNWPYTFGQGTKLEIK	binds
E83-IgG1 (antibody, V domains shown, human IgG1, human kappa) VH: QMQLVQSGAEVKKPGASVKVSCKVSGYTLTELSIHWVRQAPGKGLEWMGGFDPEDGETIYAQKSQGRVTMTGDTSTDTAYLELSSLRSEDTALYYCATGRYCFYDLCYGFDYWGQGTLVTVSS VL: EIVMTQSPATLSLSPGERATLSCRASQSVSSYLAWYQQKPGQAPRLLIYGASSRATGIPDRFSGSGSGTDFTLTISRLEPEDFAVYYCQQYSNSPPTFGQGTKLEIK	binds
E164-IgG1 (antibody, V domains shown, human IgG1, human kappa) VH: QMQLVQSGAEVKKPGASVKVSCKVSGHTLTELSMHWVRQAPGKGLEWMGGFDPEDGETIYAQKSQGRVTMTGDTSTDTAYLELSSLRSEDTALYYCATGRYTNDFANYGFDYWGQGTLVTVSS VL: EIVMTQSPATLSLSPGERATLSCRASQSVSSYLAWYQQKPGQAPRLLIYGASSRATGIPDRFSGSGSGTDFTLTISRLEPEDFAVYYCQQYNNWPYTFGQGTKLEIK	binds
